Target System: Integrin alpha-4/beta-1 (Homo sapiens, UniProt P05556+P13612)
Sequence (P05556 whole entry): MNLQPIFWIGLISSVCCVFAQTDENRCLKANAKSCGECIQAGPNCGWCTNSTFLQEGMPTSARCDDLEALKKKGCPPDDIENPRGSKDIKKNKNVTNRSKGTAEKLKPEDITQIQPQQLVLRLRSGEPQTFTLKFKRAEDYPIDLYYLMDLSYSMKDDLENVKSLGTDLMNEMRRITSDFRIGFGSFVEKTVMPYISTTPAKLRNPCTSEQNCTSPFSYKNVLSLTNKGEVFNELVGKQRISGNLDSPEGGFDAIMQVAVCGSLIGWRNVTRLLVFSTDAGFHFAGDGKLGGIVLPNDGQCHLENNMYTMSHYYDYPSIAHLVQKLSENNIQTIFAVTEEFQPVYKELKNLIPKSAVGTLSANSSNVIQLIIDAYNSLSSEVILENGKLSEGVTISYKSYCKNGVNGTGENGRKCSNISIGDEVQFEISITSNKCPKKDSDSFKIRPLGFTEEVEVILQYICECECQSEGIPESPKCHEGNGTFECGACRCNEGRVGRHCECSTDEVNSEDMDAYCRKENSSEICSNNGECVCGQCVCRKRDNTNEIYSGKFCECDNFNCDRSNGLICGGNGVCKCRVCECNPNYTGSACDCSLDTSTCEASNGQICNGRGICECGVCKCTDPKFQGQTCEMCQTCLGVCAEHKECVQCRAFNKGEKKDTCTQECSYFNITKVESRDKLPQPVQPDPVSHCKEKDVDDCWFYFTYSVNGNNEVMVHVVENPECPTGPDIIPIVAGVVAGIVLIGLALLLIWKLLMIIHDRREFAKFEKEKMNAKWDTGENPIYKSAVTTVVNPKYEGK
Sequence (P13612 whole entry): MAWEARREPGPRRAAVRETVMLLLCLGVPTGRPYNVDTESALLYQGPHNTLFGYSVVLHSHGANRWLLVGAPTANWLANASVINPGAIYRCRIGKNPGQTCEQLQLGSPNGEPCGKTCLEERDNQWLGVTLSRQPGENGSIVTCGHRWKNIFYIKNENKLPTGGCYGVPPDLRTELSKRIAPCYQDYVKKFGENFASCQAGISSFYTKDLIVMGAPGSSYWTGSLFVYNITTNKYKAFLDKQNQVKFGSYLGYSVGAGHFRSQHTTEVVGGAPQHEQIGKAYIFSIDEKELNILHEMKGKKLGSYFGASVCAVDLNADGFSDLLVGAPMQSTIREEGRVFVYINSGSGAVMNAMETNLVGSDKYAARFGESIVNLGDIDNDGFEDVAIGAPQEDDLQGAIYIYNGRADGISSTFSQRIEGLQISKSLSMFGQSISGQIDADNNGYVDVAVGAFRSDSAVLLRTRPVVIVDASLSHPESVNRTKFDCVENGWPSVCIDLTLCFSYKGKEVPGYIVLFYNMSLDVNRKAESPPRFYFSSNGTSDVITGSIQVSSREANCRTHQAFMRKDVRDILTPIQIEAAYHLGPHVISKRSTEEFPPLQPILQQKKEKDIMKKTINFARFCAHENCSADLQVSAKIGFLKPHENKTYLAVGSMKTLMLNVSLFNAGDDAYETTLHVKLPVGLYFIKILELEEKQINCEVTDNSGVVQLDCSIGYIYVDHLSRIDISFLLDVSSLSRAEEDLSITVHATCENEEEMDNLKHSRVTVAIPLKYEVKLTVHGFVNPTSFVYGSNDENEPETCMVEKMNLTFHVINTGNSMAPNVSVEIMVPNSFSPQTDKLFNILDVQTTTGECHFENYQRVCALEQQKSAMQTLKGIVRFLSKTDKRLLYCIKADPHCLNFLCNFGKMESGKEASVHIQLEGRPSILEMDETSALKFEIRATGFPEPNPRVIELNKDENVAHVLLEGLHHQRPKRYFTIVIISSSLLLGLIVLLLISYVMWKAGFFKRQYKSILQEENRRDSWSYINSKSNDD
Assay Remarks: Inhibition of fluorescently labeled alpha4-beta1 positive Ramos cells binding to immobilized VCAM-1.
Type: cell-based
pIC50: −log10 of the molar value. Where a SMILES comes first, the peptide text is derived from it. Bridges are numbered along the chain shown (N, C = ends). [ ]: non-standard residue; d: D form. The star is where a group is joined. Tyr(3-F) = N[C@@H](Cc1ccc(O)c(F)c1)C(=O)O; 2Naphthoyl = O=C(c1ccc2ccccc2c1)*
Measured Endpoint: pIC50

{"Compound": "N=C(N)NCCC[C@H](NC(=O)[C@@H](N)Cc1ccc(O)cc1)C(=O)N[C@H]1CSSC[C@@H](C(=O)O)NC(=O)[C@@H]2CCCN2C(=O)[C@H](CC(N)=O)NC1=O (H-YRCNPC-OH; disulfide 3-6)", "Result Number": 5.15}
{"Compound": "N[C@@H](Cc1ccc(O)c(F)c1)C(=O)N[C@H]1CSSC[C@@H](C(=O)O)NC(=O)[C@@H]2CCCN2C(=O)[C@H](CO)NC1=O (H-[Tyr(3-F)]CSPC-OH; disulfide 2-5)", "Result Number": 6.30}
{"Compound": "N=C(N)NCCC[C@H](NC(=O)[C@@H](N)Cc1ccc(O)cc1)C(=O)N[C@H]1CSSC[C@@H](C(=O)O)NC(=O)[C@@H]2CCCN2C(=O)[C@H](CCC(N)=O)NC1=O (H-YRCQPC-OH; disulfide 3-6)", "Result Number": 5.05}
{"Compound": "C[C@@H]1NC(=O)[C@@H](NC(=O)[C@@H](N)Cc2ccc(O)cc2)CSSC[C@@H](C(=O)O)NC(=O)[C@H](Cc2ccccc2)NC1=O (H-YCAFC-OH; disulfide 2-5)", "Result Number": 3.74}
{"Compound": "O=C(N[C@H]1CSSC[C@@H](C(=O)O)NC(=O)[C@@H]2CCCN2C(=O)[C@H](CO)NC1=O)c1ccc2ccccc2c1 (2Naphthoyl-CSPC-OH; disulfide 1-4)", "Result Number": 5.44}
